inhibition at 10 µM reference
Target: human B1R receptor (hB1R) (Homo sapiens, UniProt P46663)
Construct: host or cells: CHO K1 cells
Sequence (P46663 whole entry): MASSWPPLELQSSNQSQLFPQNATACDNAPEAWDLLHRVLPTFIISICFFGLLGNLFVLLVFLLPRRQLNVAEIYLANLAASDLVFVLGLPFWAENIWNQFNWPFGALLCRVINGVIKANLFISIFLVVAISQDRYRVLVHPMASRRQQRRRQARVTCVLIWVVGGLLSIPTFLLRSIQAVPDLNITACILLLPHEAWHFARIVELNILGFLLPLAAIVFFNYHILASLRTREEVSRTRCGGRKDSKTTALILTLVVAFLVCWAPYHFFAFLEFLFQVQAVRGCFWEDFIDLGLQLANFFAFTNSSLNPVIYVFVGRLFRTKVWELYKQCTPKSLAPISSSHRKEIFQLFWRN
Assay: FLIPR Ca2+ assay on hB1R-transfected CHO K1 cells, antagonistic action
Assay type: cell-based
Conditions: CHO-K1, 10 μM test substance; agonist Lys-Des-Arg9-bradykinin 0.5 nM; % of maximum achievable inhibition; read-out: hB1R [10 μM] % inhibition
Respond with a number, then the unit of measure.

Solved entries:
>>> reading("COc1cc(C)c(S(=O)(=O)N2CCC(OCC(=O)N(C)CC3CCC(CCc4ccccc4)(N4CCN(C)CC4)CC3)C2)c(C)c1 (centres unmarked)")
"103%"
>>> reading("CN1CCN(C2(CCc3ccccc3)CCC(CN(C)C(=O)COCCN(C)S(=O)(=O)c3c(Cl)cc(Cl)cc3Cl)CC2)CC1 (centres unmarked)")
"100%"
>>> reading("COc1cc(C)c(S(=O)(=O)N2CCCCC2COCC(=O)N2CCC(c3ccccc3)(N3CCN(C)CC3)CC2)c(C)c1 (centres unmarked)")
"103%"
>>> reading("COc1cc(C)c(S(=O)(=O)N2CCC(OCC(=O)NC3CCC(CCc4ccccc4)(N(C)C)CC3)C2)c(C)c1 (centres unmarked)")
"104%"
>>> reading("CN(C)C1(CCc2ccccc2)CCN(C(=O)CC(NS(=O)(=O)c2ccc3ccccc3c2)c2ccccc2)CC1 (centres unmarked)")
"83%"

Prompt: Please state recorded inhibition at 10 µM (tested on human B1R receptor (hB1R) (Homo sapiens, UniProt P46663)) of COc1cc(C)c(S(=O)(=O)N(C)CCOCC(=O)N2CCC(c3cccc(F)c3)(N3CCN(C)CC3)CC2)c(C)c1
Completion: 100%

Prompt: Which measured inhibition at 10 µM belongs to COc1cc(C)c(S(=O)(=O)N(C)CCOCC(=O)N(C)CCCC2CCC(CCc3ccccc3)(N3CCCC3)CC2)c(C)c1 (centres unmarked) , tested on human B1R receptor (hB1R) (Homo sapiens, UniProt P46663)?
Completion: 98%

Prompt: // fetch human B1R receptor (hB1R) (Homo sapiens, UniProt P46663) inhibition at 10 µM for COc1cc(C)c(S(=O)(=O)N2CCCC2COCC(=O)NCC2CCC(c3ccccc3)(N3CCOCC3)CC2)c(C)c1 (centres unmarked)
Completion: 84%

Prompt: Provide value of inhibition at 10 µM for this record tested with human B1R receptor (hB1R) (Homo sapiens, UniProt P46663): COc1cc(C)c(S(=O)(=O)N2CCCCC2COCC(=O)N(C)CCCC2CCC(c3ccccc3)(N3CCCC3)CC2)c(C)c1 (centres unmarked)
Completion: 104%

Prompt: # get_value(readout= inhibition at 10 µM, system= human B1R receptor (hB1R) (Homo sapiens, UniProt P46663)) for COc1cc(C)c(S(=O)(=O)N(C)CCOCC(=O)NC2CCC(Cc3ccc(F)cc3)(N(C)C)CC2)c(C)c1 (centres unmarked)
Completion: 104%

Prompt: Could you share what inhibition at 10 µM was measured for Cc1cc(S(=O)(=O)N2CCCCC2CCC(=O)N2CCC(c3cccc(F)c3)(N3CCN(C)CC3)CC2)c(C)cc1Cl (centres unmarked) , tested on human B1R receptor (hB1R) (Homo sapiens, UniProt P46663)?
Completion: 104%

Prompt: For the record COc1cc(C)c(S(=O)(=O)N(C)CCOCC(=O)NC2CCC(Cc3ccccc3)(N3CCOCC3)CC2)c(C)c1 (centres unmarked) , what value of inhibition at 10 µM is listed for human B1R receptor (hB1R) (Homo sapiens, UniProt P46663)?
Completion: 75%

Prompt: Notebook: pull reported inhibition at 10 µM for human B1R receptor (hB1R) (Homo sapiens, UniProt P46663), entry COc1cc(C)c(S(=O)(=O)N2CCC(OCC(=O)N(C)CC3CCC(Cc4ccccc4)(N4CCN(C)CC4)CC3)C2)c(C)c1 (centres unmarked)
Completion: 99%

Prompt: State its inhibition at 10 µM on human B1R receptor (hB1R) (Homo sapiens, UniProt P46663): COc1cc(C)c(S(=O)(=O)N2CCCC(OCC(=O)NC3CCC(Cc4ccccc4)(N4CCCC4)CC3)C2)c(C)c1 (centres unmarked)
Completion: 78%

* * *

Items are presented alongside their recorded inhibition at 10 µM.
Target: human B1R receptor (hB1R) (Homo sapiens, UniProt P46663)
Construct: host or cells: CHO K1 cells
Test: FLIPR Ca2+ assay on hB1R-transfected CHO K1 cells, antagonistic action
Type: cell-based
Settings: CHO-K1, 10 μM test substance; agonist Lys-Des-Arg9-bradykinin 0.5 nM; % of maximum achievable inhibition; read-out: hB1R [10 μM] % inhibition
Only the number, expressed in %, is required.

These recorded examples may help you get a feel for the data.
>>> reading("COc1cc(C)c(S(=O)(=O)N2CCCC2COCC(=O)NC2CCC(c3ccccc3)(N3CCOCC3)CC2)c(C)c1 (stereo not shown)")
93
>>> reading("Cc1cccc(Cl)c1S(=O)(=O)N1CCCCC1CCCC(=O)N1CCC(c2cccc(F)c2)(N2CCN(C)CC2)CC1 (stereo not shown)")
100
>>> reading("CN(CCC1CCC(Cc2ccccc2)(N(C)C)CC1)C(=O)COCC1CCc2ccccc2N1S(=O)(=O)c1ccc(Cl)c(Cl)c1 (stereo not shown)")
49
>>> reading("CN1CCN(C2(c3ccccc3)CCN(C(=O)COCC3CCc4ccccc4N3S(=O)(=O)c3ccc(Cl)c(Cl)c3)CC2)CC1 (stereo not shown)")
71
>>> reading("CN(CCCC1CCC(CCc2ccccc2)(N2CCCC2)CC1)C(=O)CC(NS(=O)(=O)c1ccc2ccccc2c1)c1ccccc1 (stereo not shown)")
102
>>> reading("CN(CCC1CCC(CCc2ccccc2)(N2CCCC2)CC1)C(=O)CC(NS(=O)(=O)c1ccc2ccccc2c1)c1ccccc1 (stereo not shown)")
96

Prompt: // lookup inhibition at 10 µM for COc1cc(C)c(S(=O)(=O)N(C)CCOCC(=O)N(C)CC2CCC(Cc3ccccc3)(N3CCCC3)CC2)c(C)c1 (stereo not shown)
Completion: 104

* * *

Target: human B1R receptor (hB1R) (Homo sapiens, UniProt P46663)
Construct: host or cells: CHO K1 cells
Test: FLIPR Ca2+ assay on hB1R-transfected CHO K1 cells, antagonistic action
Assay type: cell-based
Settings: CHO-K1, 10 μM test substance; agonist Lys-Des-Arg9-bradykinin 0.5 nM; % of maximum achievable inhibition; read-out: hB1R [10 μM] % inhibition
Quantity Name: inhibition at 10 µM (%)
Note: unit % is implicit; provide only the numeric part.

Prompt: # lookup: inhibition at 10 µM of COc1cc(C)c(S(=O)(=O)N(C)CCOCC(=O)NC2CCC(c3ccccc3)(N3CCCC3)CC2)c(C)c1 (stereo not drawn)
Completion: 102

Prompt: Which measured inhibition at 10 µM value corresponds to COc1cc(C)c(S(=O)(=O)N2CCC(OCC(=O)N3CCC(c4cccc(F)c4)(N4CCN(C)CC4)CC3)C2)c(C)c1 (stereo not drawn) ?
Completion: 100

Prompt: If you can, please state the reported inhibition at 10 µM value of CN(CCCC1CCC(c2ccccc2)(N2CCCC2)CC1)C(=O)CC1CCCCN1S(=O)(=O)c1cccc(C(F)(F)F)c1 (stereo not drawn) .
Completion: 103

Prompt: Given CN(CCC1CCC(c2ccccc2)(N(C)C)CC1)C(=O)COCC1CCc2ccccc2N1S(=O)(=O)c1ccc(Cl)c(Cl)c1 (stereo not drawn) , state its recorded inhibition at 10 µM.
Completion: 80

Prompt: Given COc1cc(C)c(S(=O)(=O)N(C)CCOCC(=O)N(C)CC2CCC(Cc3ccccc3)(N3CCN(C)CC3)CC2)c(C)c1 (stereo not drawn) , state its recorded inhibition at 10 µM.
Completion: 102

Prompt: Item under review: CN(CC1CCC(Cc2ccccc2)(N2CCCC2)CC1)C(=O)CC1CCCCN1S(=O)(=O)c1cccc(C(F)(F)F)c1 (stereo not drawn) . Reported inhibition at 10 µM?
Completion: 64

Prompt: Value lookup for inhibition at 10 µM; key = Cc1cc(S(=O)(=O)N2CCCCC2CCC(=O)N(C)CCC2CCC(Cc3ccccc3)(N3CCCC3)CC2)c(C)cc1Cl (stereo not drawn)
Completion: 103

Prompt: I would be grateful if you could share the reported inhibition at 10 µM for COc1cc(C)c(S(=O)(=O)N(C)CCOCC(=O)N(C)CCC2CCC(c3ccccc3)(N3CCCC3)CC2)c(C)c1 (stereo not drawn) .
Completion: 104

* * *

Target: B1R receptor of the rat (rB1R) (Rattus norvegicus, UniProt P97583)
Construct: host or cells: CHO K1 cells
Sequence (P97583 whole entry): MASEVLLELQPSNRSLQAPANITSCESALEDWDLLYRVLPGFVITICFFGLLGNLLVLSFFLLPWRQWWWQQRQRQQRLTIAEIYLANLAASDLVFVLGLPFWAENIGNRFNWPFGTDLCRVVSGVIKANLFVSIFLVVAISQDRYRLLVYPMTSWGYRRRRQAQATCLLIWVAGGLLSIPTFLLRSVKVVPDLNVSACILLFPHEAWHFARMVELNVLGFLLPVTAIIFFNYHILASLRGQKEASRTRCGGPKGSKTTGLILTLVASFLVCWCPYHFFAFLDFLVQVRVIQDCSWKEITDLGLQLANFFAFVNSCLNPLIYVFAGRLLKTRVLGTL
Test: FLIPR Ca2+ assay on rB1R-transfected CHO K1 cells, antagonistic action
Format: cell-based
Conditions: CHO-K1, 10 μM test substance; agonist Des-Arg9-bradykinin 100 nM; % of maximum achievable inhibition; read-out: rB1R [10 μM] % inhibition
Each record here notes measured inhibition at 10 µM.
// units = %; emit number, no label

>>> reading("COc1cc(C)c(S(=O)(=O)N2CCCCC2CCOCC(=O)N2CCC(c3cccc(F)c3)(N3CCN(C)CC3)CC2)c(C)c1 (stereo not drawn) [Compound 227]")
99
>>> reading("COc1cc(C)c(S(=O)(=O)N2CCC(OCC(=O)NC3CCC(Cc4ccccc4)(N4CCCC4)CC3)C2)c(C)c1 (stereo not drawn) [Compound 166]")
90
>>> reading("COc1cc(C)c(S(=O)(=O)N2CCCCC2COCC(=O)N(C)CC2CCC(CCc3ccccc3)(N3CCCC3)CC2)c(C)c1 (stereo not drawn) [Compound 51]")
100

Prompt: Query: inhibition at 10 µM; subject: COc1cc(C)c(S(=O)(=O)N(C)CCOCC(=O)N2CCC(CCc3ccccc3)(N3CCN(C)CC3)CC2)c(C)c1 [Compound 87]
Completion: 98

Prompt: # input compound: CN(CCCC1CCC(c2ccccc2)(N2CCCC2)CC1)C(=O)COCC1CCc2ccccc2N1S(=O)(=O)c1ccc(Cl)c(Cl)c1 (stereo not drawn) [Compound 133] ; wanted: its inhibition at 10 µM
Completion: 42

Prompt: Entry under review: COc1cc(C)c(S(=O)(=O)N2CCCC[C@H]2COCC(=O)N(C)CCC2CCC(c3ccccc3)(N3CCCC3)CC2)c(C)c1 (stereo partly drawn) [Compound 200] . Reported inhibition at 10 µM?
Completion: 105

Prompt: Could you tell me which inhibition at 10 µM is on file for O=C(CC1CCCCN1S(=O)(=O)c1cccc(C(F)(F)F)c1)N1CCC(c2ccccc2)(N2CCN(c3ccncc3)CC2)CC1 (stereo not drawn) [Compound 113] ?
Completion: 74

Prompt: Suppose we examine the compound COc1cc(C)c(S(=O)(=O)N2CCCCC2COCC(=O)N(C)CC2CCC(c3ccccc3)(N3CCCC3)CC2)c(C)c1 (stereo not drawn) [Compound 66] ; what inhibition at 10 µM value has been reported?
Completion: 100
